Target: Yap3 (UniProt P38749)
Sequence: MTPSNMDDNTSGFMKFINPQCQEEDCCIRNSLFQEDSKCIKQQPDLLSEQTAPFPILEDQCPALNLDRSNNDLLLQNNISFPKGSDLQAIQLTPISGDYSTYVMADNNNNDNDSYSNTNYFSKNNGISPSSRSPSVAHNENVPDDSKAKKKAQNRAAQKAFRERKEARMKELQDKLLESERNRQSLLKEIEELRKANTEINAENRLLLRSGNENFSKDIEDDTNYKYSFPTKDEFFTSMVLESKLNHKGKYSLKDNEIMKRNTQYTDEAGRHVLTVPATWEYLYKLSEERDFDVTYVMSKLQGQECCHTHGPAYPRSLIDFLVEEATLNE
Test: PBM E-score (8-mer binding enrichment) (E-score (-0.5 to 0.5)); higher = stronger / more preferred TF binding
Conditions: protein concentration: 100 nM; construct: GST-full length
The full ranking holds about 33,000 sequences; the median of “E-score (-0.5 to 0.5)” is about -0.0034, and the highest 2% start at about 0.25. Only a selection was taken, and the highest values are over-represented in it overall.

- sequence_entry: "CATATTGA"
  PBM E-score: 0.0743
- sequence_entry: "GATATTCA"
  PBM E-score: 0.0491
- sequence_entry: "GGATTGCC"
  PBM E-score: -0.116
- sequence_entry: "CTCGACGC"
  PBM E-score: 0.0226
- sequence_entry: "AGTAACGA"
  PBM E-score: -0.0656
- sequence_entry: "CTGTTCAA"
  PBM E-score: 0.0116
- sequence_entry: "AGTAATCA"
  PBM E-score: 0.117
- sequence_entry: "GGTAATCA"
  PBM E-score: 0.189
- sequence_entry: "GTTGTTCA"
  PBM E-score: -0.0828
- sequence_entry: "GTTTTAAA"
  PBM E-score: 0.235
- sequence_entry: "CGTAATCC"
  PBM E-score: 0.285
- sequence_entry: "CATATTTC"
  PBM E-score: 0.0493
- sequence_entry: "ATTTTTAA"
  PBM E-score: 0.295
- sequence_entry: "ACCAAGAC"
  PBM E-score: 0.175
- sequence_entry: "CTACCTTC"
  PBM E-score: 0.0321
- sequence_entry: "AATTTTTA"
  PBM E-score: 0.252
- sequence_entry: "GAAATCAA"
  PBM E-score: 0.0981
- sequence_entry: "AAAATCAA"
  PBM E-score: 0.19
- sequence_entry: "CGTATTAA"
  PBM E-score: 0.0173
- sequence_entry: "GCAACATA"
  PBM E-score: 0.0566
- sequence_entry: "CATATTAG"
  PBM E-score: 0.184
- sequence_entry: "AGTAATCC"
  PBM E-score: 0.102

====

Target: Yap3 (UniProt P38749)
Sequence: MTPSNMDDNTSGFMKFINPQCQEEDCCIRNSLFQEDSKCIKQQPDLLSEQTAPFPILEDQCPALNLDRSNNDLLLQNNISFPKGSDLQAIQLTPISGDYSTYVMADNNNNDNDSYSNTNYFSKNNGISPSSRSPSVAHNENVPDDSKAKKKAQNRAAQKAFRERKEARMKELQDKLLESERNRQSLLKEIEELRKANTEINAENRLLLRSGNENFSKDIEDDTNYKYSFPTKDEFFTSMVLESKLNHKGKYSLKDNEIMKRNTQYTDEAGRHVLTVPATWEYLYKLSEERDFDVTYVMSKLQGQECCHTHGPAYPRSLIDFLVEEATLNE
Assay: PBM E-score (8-mer binding enrichment) (E-score (-0.5 to 0.5)); higher = stronger / more preferred TF binding
Details: protein concentration: 100 nM; construct: GST-full length
Over roughly 33,000 sequences, “E-score (-0.5 to 0.5)” has its median near -0.0034; the highest 2% begin near 0.25. Shown is part of a subset that was picked to be rich in the highest values.
Output y for PBM E-score not less than 0.2; output n otherwise.

- sequence_entry: "ATTATGTA"
  assigned_label: "y"
- sequence_entry: "ACATATAA"
  assigned_label: "y"
- sequence_entry: "AATAGCCG"
  assigned_label: "n"
- sequence_entry: "AATAAAAG"
  assigned_label: "n"
- sequence_entry: "TTCAAAAA"
  assigned_label: "n"
- sequence_entry: "TTATATAA"
  assigned_label: "y"
- sequence_entry: "GATAAAAC"
  assigned_label: "y"
- sequence_entry: "ATTATGCA"
  assigned_label: "n"
- sequence_entry: "AATAAGAA"
  assigned_label: "y"
- sequence_entry: "CTATATAA"
  assigned_label: "n"
- sequence_entry: "ATTATGCC"
  assigned_label: "n"
- sequence_entry: "CATAATGG"
  assigned_label: "n"

====

Biological target: Yap3 (UniProt P38749)
Sequence: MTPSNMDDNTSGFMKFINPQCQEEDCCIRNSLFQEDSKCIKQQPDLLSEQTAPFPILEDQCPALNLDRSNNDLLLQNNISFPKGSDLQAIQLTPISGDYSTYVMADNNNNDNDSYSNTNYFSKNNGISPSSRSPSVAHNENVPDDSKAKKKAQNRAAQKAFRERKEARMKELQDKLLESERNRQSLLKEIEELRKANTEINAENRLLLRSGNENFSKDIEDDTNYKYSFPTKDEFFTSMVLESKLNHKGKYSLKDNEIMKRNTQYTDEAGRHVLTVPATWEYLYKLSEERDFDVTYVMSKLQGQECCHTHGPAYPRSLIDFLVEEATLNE
Experiment: PBM E-score (8-mer binding enrichment) (E-score (-0.5 to 0.5)); higher = stronger / more preferred TF binding
Details: protein concentration: 100 nM; construct: GST-full length
The full ranking holds about 33,000 sequences; the median of “E-score (-0.5 to 0.5)” is about -0.0034, and the highest 2% start at about 0.25. The entries come from a sample that favours the highest values as a whole.
Entries and their PBM E-score values follow.
measured_endpoint: PBM E-score

- sequence_entry: "AAACCCTT"
  data_value: 0.0938
- sequence_entry: "ACTAAGAT"
  data_value: 0.255
- sequence_entry: "ACTAATGA"
  data_value: 0.264
- sequence_entry: "GTTAATGA"
  data_value: 0.133
- sequence_entry: "ACTAATTA"
  data_value: 0.362
- sequence_entry: "TCGCGCCA"
  data_value: -0.0451
- sequence_entry: "GGTTAGTA"
  data_value: 0.0941
- sequence_entry: "ACTAATAC"
  data_value: 0.288
- sequence_entry: "GCGCACCA"
  data_value: -0.0312
- sequence_entry: "CAGGAAGC"
  data_value: 0.00172
- sequence_entry: "ACTATATG"
  data_value: 0.193
- sequence_entry: "GTTAATTA"
  data_value: 0.262
- sequence_entry: "AATATATC"
  data_value: 0.157
- sequence_entry: "CTTAATTA"
  data_value: 0.174
- sequence_entry: "CTTTAGTA"
  data_value: 0.0328
- sequence_entry: "CTGCGATC"
  data_value: -0.0633
- sequence_entry: "CTCGTCGA"
  data_value: -0.0244
- sequence_entry: "AATATGTA"
  data_value: 0.222
- sequence_entry: "GATGGGGA"
  data_value: -0.0817
- sequence_entry: "GTTTAGTA"
  data_value: 0.275
- sequence_entry: "AATATATA"
  data_value: 0.229
- sequence_entry: "AACGAGGA"
  data_value: 0.0742
- sequence_entry: "ACGTGTTG"
  data_value: 0.0914
- sequence_entry: "AATTCGCG"
  data_value: 0.0991
- sequence_entry: "TCTAATCA"
  data_value: 0.185
- sequence_entry: "AGACATCC"
  data_value: -0.152
- sequence_entry: "AATTCGCC"
  data_value: 0.125
- sequence_entry: "CTCAGACA"
  data_value: 0.087
- sequence_entry: "AGCGTCGA"
  data_value: 0.124
- sequence_entry: "AATATGTG"
  data_value: 0.273
- sequence_entry: "AGCACGCC"
  data_value: -0.157
- sequence_entry: "CCAGGGAA"
  data_value: -0.188
- sequence_entry: "AATAGAAC"
  data_value: 0.16
- sequence_entry: "CCTAATTA"
  data_value: 0.136
- sequence_entry: "ATTTAGTG"
  data_value: 0.204
- sequence_entry: "GCTAATGA"
  data_value: 0.0606
- sequence_entry: "CCTAATGA"
  data_value: 0.128
- sequence_entry: "CCGAGCGC"
  data_value: 0.00891

====

Target: Yap3 (UniProt P38749)
Sequence: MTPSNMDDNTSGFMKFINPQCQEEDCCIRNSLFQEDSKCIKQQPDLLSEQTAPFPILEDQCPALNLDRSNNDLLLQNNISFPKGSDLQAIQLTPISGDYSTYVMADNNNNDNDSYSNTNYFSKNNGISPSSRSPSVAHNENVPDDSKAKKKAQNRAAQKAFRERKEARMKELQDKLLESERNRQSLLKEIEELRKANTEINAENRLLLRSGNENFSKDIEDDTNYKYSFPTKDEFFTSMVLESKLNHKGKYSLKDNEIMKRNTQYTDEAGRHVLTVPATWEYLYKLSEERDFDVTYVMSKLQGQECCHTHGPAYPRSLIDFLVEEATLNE
Test: PBM E-score (8-mer binding enrichment) (E-score (-0.5 to 0.5)); higher = stronger / more preferred TF binding
Conditions: protein concentration: 100 nM; construct: GST-full length
The full ranking holds about 33,000 sequences; the median of “E-score (-0.5 to 0.5)” is about -0.0034, and the highest 2% start at about 0.25. The list comes from a sample in which the highest values are over-represented; it also holds close analogues and randomly drawn sequences.
measured_endpoint: PBM E-score

- sequence_entry: "ATTGCAGG"
  experimental_system: "Yap3 (UniProt P38749)"
  measured_endpoint: "PBM E-score"
  data_value: 0.073
- sequence_entry: "TCGGGGAA"
  experimental_system: "Yap3 (UniProt P38749)"
  measured_endpoint: "PBM E-score"
  data_value: 0.0864
- sequence_entry: "AATAGTTA"
  experimental_system: "Yap3 (UniProt P38749)"
  measured_endpoint: "PBM E-score"
  data_value: 0.0935
- sequence_entry: "GATAGTAA"
  experimental_system: "Yap3 (UniProt P38749)"
  measured_endpoint: "PBM E-score"
  data_value: 0.11
- sequence_entry: "AGTATAAA"
  experimental_system: "Yap3 (UniProt P38749)"
  measured_endpoint: "PBM E-score"
  data_value: 0.304
- sequence_entry: "TTATCAAA"
  experimental_system: "Yap3 (UniProt P38749)"
  measured_endpoint: "PBM E-score"
  data_value: 0.283
- sequence_entry: "AGGTTCTG"
  experimental_system: "Yap3 (UniProt P38749)"
  measured_endpoint: "PBM E-score"
  data_value: -0.122
- sequence_entry: "CGAGTACG"
  experimental_system: "Yap3 (UniProt P38749)"
  measured_endpoint: "PBM E-score"
  data_value: -0.147
- sequence_entry: "GAATCAAA"
  experimental_system: "Yap3 (UniProt P38749)"
  measured_endpoint: "PBM E-score"
  data_value: 0.0372
- sequence_entry: "AATAGTAA"
  experimental_system: "Yap3 (UniProt P38749)"
  measured_endpoint: "PBM E-score"
  data_value: 0.258
- sequence_entry: "CAGGGTCC"
  experimental_system: "Yap3 (UniProt P38749)"
  measured_endpoint: "PBM E-score"
  data_value: -0.29
- sequence_entry: "TATAGTAA"
  experimental_system: "Yap3 (UniProt P38749)"
  measured_endpoint: "PBM E-score"
  data_value: 0.27
